# assayed target: human ether-à-go-go-related gene (hERG) potassium channel (human, UniProt Q12809);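 note: peak tail current of the secondary pulse compared with the same well before compound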
# Sequence (Q12809 whole entry, looked up): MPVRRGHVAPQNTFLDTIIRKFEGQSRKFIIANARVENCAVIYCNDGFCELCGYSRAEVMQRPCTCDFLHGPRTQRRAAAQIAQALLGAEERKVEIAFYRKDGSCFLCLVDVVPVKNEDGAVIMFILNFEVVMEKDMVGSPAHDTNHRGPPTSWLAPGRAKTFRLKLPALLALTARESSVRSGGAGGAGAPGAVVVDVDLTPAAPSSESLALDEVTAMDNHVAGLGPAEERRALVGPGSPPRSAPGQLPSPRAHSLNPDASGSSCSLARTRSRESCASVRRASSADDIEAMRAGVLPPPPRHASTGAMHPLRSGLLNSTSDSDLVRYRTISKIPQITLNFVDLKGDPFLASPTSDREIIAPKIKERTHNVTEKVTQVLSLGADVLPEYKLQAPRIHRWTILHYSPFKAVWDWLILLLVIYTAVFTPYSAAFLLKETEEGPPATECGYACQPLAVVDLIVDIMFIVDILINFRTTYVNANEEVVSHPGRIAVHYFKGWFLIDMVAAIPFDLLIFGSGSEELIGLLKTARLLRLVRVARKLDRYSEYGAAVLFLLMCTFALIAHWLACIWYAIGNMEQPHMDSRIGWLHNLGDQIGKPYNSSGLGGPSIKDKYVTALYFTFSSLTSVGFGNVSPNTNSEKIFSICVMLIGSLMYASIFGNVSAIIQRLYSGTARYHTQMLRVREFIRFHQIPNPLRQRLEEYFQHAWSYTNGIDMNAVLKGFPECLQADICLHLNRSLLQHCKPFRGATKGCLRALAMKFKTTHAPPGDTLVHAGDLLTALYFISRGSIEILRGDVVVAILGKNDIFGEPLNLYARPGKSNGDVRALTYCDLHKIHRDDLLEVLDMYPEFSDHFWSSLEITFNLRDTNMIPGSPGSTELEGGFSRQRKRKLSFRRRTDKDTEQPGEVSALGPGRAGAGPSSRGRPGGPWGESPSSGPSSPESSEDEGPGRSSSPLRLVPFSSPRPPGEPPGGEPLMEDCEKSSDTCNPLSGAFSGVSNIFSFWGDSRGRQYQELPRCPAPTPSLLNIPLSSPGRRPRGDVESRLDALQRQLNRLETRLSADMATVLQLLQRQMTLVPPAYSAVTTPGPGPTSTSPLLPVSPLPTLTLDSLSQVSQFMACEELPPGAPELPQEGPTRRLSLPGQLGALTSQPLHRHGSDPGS
# assay text: primary screen, population patch clamp on CHO cells stably expressing hERG; higher = less effect of the substance
Among all 310,000 compounds or so, about 14,000 (4.5%) showed an effect of 50% or more. Effects have a minus sign here. The full list was thinned out, with strong results kept by preference.
endpoint name: hERG current change (%, negative = inhibition) at 10uM

Below are worked cases with known answers.
compound | test result
CCOC(=O)c1sc(NC(=O)CCN2CC(C)OC(C)C2)c(C(=O)OCC)c1C.O=C(O)C(=O)O (stereo not drawn) | 13.9%
CCOC(=O)c1c(-c2ccc(-c3ccccc3)cc2)csc1NC(=O)CCN1CCOCC1 | 13.8%
Nc1ncc(Br)cc1S(=O)(=O)NCCC(=O)N1CCN(c2ccccn2)CC1 | -55.4%
O=C(CCn1cccc1)Nc1cccc(F)c1 | 0.101%
Nc1ncc(Br)cc1S(=O)(=O)NCCC(=O)N1CCN(c2ncccn2)CC1 | -25.6%
Cc1ccc(C)c(N2CCN(CCCNC(=O)Cn3cccc3C(=O)c3ccccc3C)CC2)c1 | -74%
COc1ccccc1NS(=O)(=O)c1cc(C(=O)NCC(c2ccc(F)cc2)N2CCOCC2)ccc1C (stereo not drawn) | -19.1%
CN(CC(=O)N1CCN(c2ccccn2)CC1)S(=O)(=O)c1ccc(Br)cc1 | -54.8%
COc1ccc(S(=O)(=O)N(C)CC(=O)N2CCN(c3ccc(F)cc3)CC2)cc1OC | -44%
O=c1c(Cl)c(Nc2cccc(Cl)c2)cnn1-c1nc2ccccc2s1 | -2.51%

What measured hERG current change (%, negative = inhibition) at 10uM is associated with Cc1ccc(CNC(=O)Cn2cnc(S(=O)(=O)N3CCC(C)CC3)c2)o1 on human ether-à-go-go-related gene (hERG) potassium channel (human, UniProt Q12809)? -62.1%
